System: Escherichia coli TOP10
measurement_description: shrunken log2 fold change of peptide-encoding DNA abundance (4.5 h post-induction vs induction); higher = less antimicrobial activity (less host growth inhibition)
measurement_context: time post-induction: 4.5 h; library: site-saturation at positions 5, 18, 19, 20
parameter_measured: shrunken log2 fold change

Completed entries (count: 6):
- biosequence: "RRIRSRPPRLPRPRPRPDMNPRP"
  parameter_measured: "shrunken log2 fold change"
  value: 0.0168
- biosequence: "RRIRVRPPRLPRPRPRPFNVPRP"
  parameter_measured: "shrunken log2 fold change"
  value: -0.185
- biosequence: "RRIRCRPPRLPRPRPRPRQGPRP"
  parameter_measured: "shrunken log2 fold change"
  value: 0.436
- biosequence: "RRIRCRPPRLPRPRPRPVNVPRP"
  parameter_measured: "shrunken log2 fold change"
  value: -0.249
- biosequence: "RRIRSRPPRLPRPRPRPMWEPRP"
  parameter_measured: "shrunken log2 fold change"
  value: 0.0252
- biosequence: "RRIRIRPPRLPRPRPRPAMLPRP"
  parameter_measured: "shrunken log2 fold change"
  value: -0.22

Ask | Need shrunken log2 fold change, item RRIRQRPPRLPRPRPRPIMNPRP
Reply | -1.23

Ask | Need shrunken log2 fold change, item RRIRERPPRLPRPRPRPVLTPRP
Reply | -0.126

====

Test system: Escherichia coli TOP10
measurement_description: shrunken log2 fold change of peptide-encoding DNA abundance (4.5 h post-induction vs induction); higher = less antimicrobial activity (less host growth inhibition)
measurement_context: time post-induction: 4.5 h; library: site-saturation at positions 5, 18, 19, 20
parameter_measured: shrunken log2 fold change
API note: the answer field is a bare number with no unit suffix.

- biosequence: "RRIRLRPPRLPRPRPRPYFGPRP"
  value: -0.218
- biosequence: "RRIRSRPPRLPRPRPRPYMNPRP"
  value: -0.479
- biosequence: "RRIRFRPPRLPRPRPRPEYEPRP"
  value: -0.211

Ask | Need shrunken log2 fold change, item RRIRRRPPRLPRPRPRPYLDPRP
Reply | -0.546

Ask | Need shrunken log2 fold change, item RRIRYRPPRLPRPRPRPVTMPRP
Reply | -0.688

Ask | Need shrunken log2 fold change, item RRIRLRPPRLPRPRPRPMYFPRP
Reply | -0.252

Ask | Need shrunken log2 fold change, item RRIRIRPPRLPRPRPRPMFYPRP
Reply | -1.25

Ask | Need shrunken log2 fold change, item RRIRDRPPRLPRPRPRPGVMPRP
Reply | 0.521

Ask | Need shrunken log2 fold change, item RRIRERPPRLPRPRPRPAPTPRP
Reply | 0.199

====

Tested on: Escherichia coli TOP10;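 note: peptides expressed intracellularly from a pBAD plasmid library in pooled LB shake-flask culture, induced with 0.3% L-arabinose, DNA abundance read by NGS, three biological replicates, DESeq2 with apeglm shrinkage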
measurement_description: shrunken log2 fold change of peptide-encoding DNA abundance (4.5 h post-induction vs induction); higher = less antimicrobial activity (less host growth inhibition)
measurement_context: time post-induction: 4.5 h; library: site-saturation at positions 5, 18, 19, 20
parameter_measured: shrunken log2 fold change
API note: the answer field is a bare number with no unit suffix.

Completed entries (count: 6):
- biosequence: "RRIRPRPPRLPRPRPRPILPPRP"
  assayed_system: "Escherichia coli TOP10"
  parameter_measured: "shrunken log2 fold change"
  value: 0.198
- biosequence: "RRIRPRPPRLPRPRPRPRPMPRP"
  assayed_system: "Escherichia coli TOP10"
  parameter_measured: "shrunken log2 fold change"
  value: 0.513
- biosequence: "RRIRNRPPRLPRPRPRPCTRPRP"
  assayed_system: "Escherichia coli TOP10"
  parameter_measured: "shrunken log2 fold change"
  value: -0.184
- biosequence: "RRIRIRPPRLPRPRPRPTDEPRP"
  assayed_system: "Escherichia coli TOP10"
  parameter_measured: "shrunken log2 fold change"
  value: 0.125
- biosequence: "RRIRYRPPRLPRPRPRPSSQPRP"
  assayed_system: "Escherichia coli TOP10"
  parameter_measured: "shrunken log2 fold change"
  value: -0.261
- biosequence: "RRIRLRPPRLPRPRPRPIDIPRP"
  assayed_system: "Escherichia coli TOP10"
  parameter_measured: "shrunken log2 fold change"
  value: 0.00368

Ask | Need shrunken log2 fold change, item RRIRRRPPRLPRPRPRPISYPRP
Reply | 0.0496

Ask | Need shrunken log2 fold change, item RRIRPRPPRLPRPRPRPREWPRP
Reply | 0.151

Ask | Need shrunken log2 fold change, item RRIRARPPRLPRPRPRPDPMPRP
Reply | 1.02

Ask | Need shrunken log2 fold change, item RRIRGRPPRLPRPRPRPHDFPRP
Reply | -0.0983

Ask | Need shrunken log2 fold change, item RRIRNRPPRLPRPRPRPDFRPRP
Reply | -0.0186

Ask | Need shrunken log2 fold change, item RRIRLRPPRLPRPRPRPCRPPRP
Reply | -0.0863

Ask | Need shrunken log2 fold change, item RRIRNRPPRLPRPRPRPKDEPRP
Reply | 0.536

Ask | Need shrunken log2 fold change, item RRIRCRPPRLPRPRPRPGGYPRP
Reply | 0.0874

Ask | Need shrunken log2 fold change, item RRIRMRPPRLPRPRPRPQMTPRP
Reply | 1.2

Ask | Need shrunken log2 fold change, item RRIRGRPPRLPRPRPRPIMNPRP
Reply | 0.237

Recorded values, source the supplement of paper PMC9112550.
